Data credit: the supplement of paper PMC10567573

B1: NFE2L1 (parent)
chain: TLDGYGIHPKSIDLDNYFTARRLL

# Variants of: B1
# test.summary: protein stability index of a GFP-peptide fusion (GPS, HEK-293T) (PSI 1-6); higher = more stable;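 further: lentivirally expressed fusions sorted by FACS into six bins by GFP to DsRed ratio, PSI derived from sequencing read proportions per bin multiplied by bin number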
# condition.context: c terminus: a fixed tail appended
Class true (1): protein stability index at least 2. Class false (0): protein stability index below 2.

• I12N = false (0)

**Q:** Record R21I ; criterion: protein stability index no lower than 2. Met?
**A:** false (0)

**Q:** Record L2R ; criterion: protein stability index no lower than 2. Met?
**A:** false (0)

**Q:** Record R21W ; criterion: protein stability index no lower than 2. Met?
**A:** false (0)

**Q:** Record Y17G ; criterion: protein stability index no lower than 2. Met?
**A:** true (1)

**Q:** Record D15A ; criterion: protein stability index no lower than 2. Met?
**A:** false (0)

**Q:** Record L23T ; criterion: protein stability index no lower than 2. Met?
**A:** true (1)

**Q:** Record Y5A ; criterion: protein stability index no lower than 2. Met?
**A:** true (1)

**Q:** Record P9K ; criterion: protein stability index no lower than 2. Met?
**A:** true (1)

**Q:** Record Y17K ; criterion: protein stability index no lower than 2. Met?
**A:** true (1)

**Q:** Record Y5G ; criterion: protein stability index no lower than 2. Met?
**A:** true (1)

**Q:** Record I7W ; criterion: protein stability index no lower than 2. Met?
**A:** false (0)

**Q:** Record T19W ; criterion: protein stability index no lower than 2. Met?
**A:** true (1)

**Q:** Record D3T ; criterion: protein stability index no lower than 2. Met?
**A:** false (0)
